# ASSAY REMARKS: Testing of solubility at different pH values
# CONDITION: aqueous solution adjusted with phosphoric acid and NaOH, 25 °C, pH 8, aqueous buffer
QUANTITY MEASURED: solubility

Given the compound "C[C@H]1[C@H](OCCC[N+](C)(C)C)O[C@@H]2O[C@@]3(C)CC[C@H]4[C@H](C)CC[C@@H]1C24OO3" , write its reported solubility.
> 1000 µg/mL

---

# ASSAY REMARKS: Testing of solubility at different pH values
# CONDITION: aqueous solution adjusted with phosphoric acid and NaOH, 25 °C, pH 6, aqueous buffer
QUANTITY MEASURED: solubility

Given the compound "C[C@H]1[C@H](OCCC[N+](C)(C)C)O[C@@H]2O[C@@]3(C)CC[C@H]4[C@H](C)CC[C@@H]1C24OO3" , write its reported solubility.
> 1000 µg/mL

---

# ASSAY REMARKS: Testing of solubility at different pH values
# CONDITION: purified water, 25 °C, water
QUANTITY MEASURED: solubility

Given the compound "C[C@H]1[C@H](OCCC[N+](C)(C)C)O[C@@H]2O[C@@]3(C)CC[C@H]4[C@H](C)CC[C@@H]1C24OO3" , write its reported solubility.
> 10000 µg/mL

The measured values listed here are drawn from patent US20250353861A1.
